B1: NETO1 (parent)
chain: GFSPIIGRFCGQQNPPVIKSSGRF

variants of: B1; test: protein stability index of a GFP-peptide fusion (GPS, HEK-293T) (PSI 1-6); higher = more stable; settings: c terminus: a fixed tail appended;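 also: lentivirally expressed fusions sorted by FACS into six bins by GFP to DsRed ratio, PSI derived from sequencing read proportions per bin multiplied by bin number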

{"columns": ["Biosequence", "protein stability index"],
 "data": [
  ["GFSPIIGRFCGQQNPPVDKSSGRF", 2.73],
  ["GFSPIIGRFCGQQNPWVIKSSGRF", 1.32],
  ["GFSPIIGRFCLQQNPPVIKSSGRF", 2.31],
  ["GFSPIHGRFCGQQNPPVIKSSGRF", 2.77],
  ["GFSPIIGRFCGQQNPPVIKPSGRF", 2.45],
  ["GFSPAIGRFCGQQNPPVIKSSGRF", 2.05]
]}
